Test system: RPMI-8866 (Chronic Myelogenous Leukemia);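 also: after 72 h of two-drug dosing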
Test: Bliss excess, mean over the matrix (fraction); higher = more synergy
OUTCOME_MEASURE: Bliss excess
Answers are plain numbers.

IN: Consider the compound Cc1cc2ncnn2cc1Nc1ncc2c(n1)n(C1CCOCC1)c(=O)n2C [AZD7648] + CN(C)CCCOc1ccc(-c2ccc3ncc4c(c3c2)n(C2CCOCC2)c(=O)n4C)cn1 [AZD0156] (first compound max 10 µM, 7x7, partner max 1 µM) . State its measured Bliss excess.
OUT: -0.0363

# ---- query compound ----
IN: Consider the compound Cc1c2c(nn1C)CSCc1cc(n(C)n1)CSc1cc(c3ccccc3c1)OCCCc1c(C(=O)O)n(C)c3c-2c(Cl)ccc13 [AZD5991] + C[C@@H]1COCCN1C2=NC(=NC(=C2)C3(CC3)[S@](=N)(=O)C)C4=C5C=CNC5=NC=C4 [AZD6738] (first compound max 1 µM, 7x7, partner max 10 µM) . State its measured Bliss excess.
OUT: 0.0013
